B1: library; numbered along this chain (parent)
chain: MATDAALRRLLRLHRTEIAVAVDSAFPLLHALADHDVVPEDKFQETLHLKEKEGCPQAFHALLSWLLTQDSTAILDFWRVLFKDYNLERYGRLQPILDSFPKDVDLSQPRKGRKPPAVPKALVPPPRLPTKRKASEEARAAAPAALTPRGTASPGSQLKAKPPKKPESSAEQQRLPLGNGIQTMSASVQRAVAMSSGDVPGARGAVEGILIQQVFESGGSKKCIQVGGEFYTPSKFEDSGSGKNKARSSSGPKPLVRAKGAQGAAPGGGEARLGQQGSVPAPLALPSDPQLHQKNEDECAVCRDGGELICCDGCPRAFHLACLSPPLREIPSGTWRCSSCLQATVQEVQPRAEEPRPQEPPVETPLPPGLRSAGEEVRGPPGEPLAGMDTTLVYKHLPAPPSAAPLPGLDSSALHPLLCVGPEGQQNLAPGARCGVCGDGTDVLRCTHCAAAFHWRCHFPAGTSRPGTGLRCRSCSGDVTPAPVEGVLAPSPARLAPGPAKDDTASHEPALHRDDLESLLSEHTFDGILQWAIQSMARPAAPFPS

Variants of: B1
Experiment: AIRE transcriptional activation functional score (insulin promoter-GFP; nonsense median 0, synonymous median 1) (normalised score); higher = higher AIRE activity (more reporter activation)
Conditions: with insulin promoter-GFP reporter in HEK293
measurement.kind: AIRE transcriptional activation functional score

Please review the following examples before continuing.
Q108W :: 0.796
E298V :: 0.91
G204E :: 0.847
L323Q :: 1.35
S332W :: 1.41
E17M :: 0.896

Prompt line: Give the measured AIRE transcriptional activation functional score for G435C
Response line: 1.18

Prompt line: Give the measured AIRE transcriptional activation functional score for A144K
Response line: 0.364

Prompt line: Give the measured AIRE transcriptional activation functional score for I209F
Response line: 0.905

Prompt line: Give the measured AIRE transcriptional activation functional score for V279S
Response line: 1.24

Prompt line: Give the measured AIRE transcriptional activation functional score for S234Q
Response line: 1.22

Prompt line: Give the measured AIRE transcriptional activation functional score for E296L
Response line: 0.781

Prompt line: Give the measured AIRE transcriptional activation functional score for W335T
Response line: 1.26

Prompt line: Give the measured AIRE transcriptional activation functional score for E296D
Response line: 0.711

Prompt line: Give the measured AIRE transcriptional activation functional score for A21R
Response line: 0.00134

Prompt line: Give the measured AIRE transcriptional activation functional score for E383W
Response line: 0.951

Prompt line: Give the measured AIRE transcriptional activation functional score for H396C
Response line: 1.33

Prompt line: Give the measured AIRE transcriptional activation functional score for T364E
Response line: 0.981

Prompt line: Give the measured AIRE transcriptional activation functional score for L75G
Response line: 0.82

Prompt line: Give the measured AIRE transcriptional activation functional score for S535W
Response line: 0.301

Prompt line: Give the measured AIRE transcriptional activation functional score for P490G
Response line: 1.51

Prompt line: Give the measured AIRE transcriptional activation functional score for V22S
Response line: -0.103
